Target: Jun bZIP R259A;Fos bZIP R143A (human;human, UniProt P05412;P01100 252-315;137-200, R259A|R143A)
Sequence (P05412 252-315 R259A, chain 1 of 2): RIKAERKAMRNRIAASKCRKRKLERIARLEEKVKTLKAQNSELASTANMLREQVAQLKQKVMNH
Sequence (P01100 137-200 R143A, chain 2 of 2): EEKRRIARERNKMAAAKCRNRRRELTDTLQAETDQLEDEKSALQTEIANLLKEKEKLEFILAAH
Experiment: ITC
Measured Quantity: Kd (µM)
Answer in µM, number only, no unit symbol.

Request: Returns the measured Kd for the input binder. Input: TRE duplex 15-mer (dsDNA) DNA 1: CGCGTGACTCACCCC DNA 2: GGGGTGAGTCACGCG
Response: 3.49

// provenance: paper PMC3154423
